Just for reference, patent US20120269817A1 is where these values come from.

Target: T1, human tissue factor pathway inhibitor (TFPI) (human, UniProt P10646 29-304, limits assumed)
T1 construct: Bought protein; also called human TFPI; hTFPI
T1 sequence (looked up): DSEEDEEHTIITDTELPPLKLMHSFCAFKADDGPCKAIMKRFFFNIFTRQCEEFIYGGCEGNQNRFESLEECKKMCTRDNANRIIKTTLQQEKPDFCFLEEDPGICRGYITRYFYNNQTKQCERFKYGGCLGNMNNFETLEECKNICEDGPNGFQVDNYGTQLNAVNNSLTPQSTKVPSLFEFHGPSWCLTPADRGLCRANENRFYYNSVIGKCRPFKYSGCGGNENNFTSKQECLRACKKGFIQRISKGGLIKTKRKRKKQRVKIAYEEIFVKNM
Test: ELISA, Fab lysate on coated human TFPI

# Binder, binding result
records = [
    ("TP-3D3 Fab (Fab, V domains shown, Human Fab from HuCal Gold, expressed in E. coli TG1) VH: QVQLVESGGGLVQPGGSLRLSCAASGFTFSSYASWVRQAPGKGLEWVSGISGDGSNTHYADSVKGRFTISRDNSKNTLYLQMNSLRAEDTAVYYCARYDNFYFDVWGQGTLVTVSS VL: DIELTQPPSVSVAPGQTARISCSGDSLGSKFAHWYQQKPGQAPVLVIYDDSNRPSGIPERFSGSNSGNTATLTISGTQAEDEADYYCSTYTSRSHSYVFGGGTKLTVLG", "binds"),
    ("TP-2A10 Fab (Fab, V domains shown, Human Fab from HuCal Gold, expressed in E. coli TG1) VH: QVQLVESGGGLVQPGGSLRLSCAASGFTFTSYSMNWVRQAPGKGLEWVSAISYTGSNTHYADSVKGRFTISRDNSKNTLYLQMNSLRAEDTAVYYCARAFLGYKESYFDIWGQGTLVTVSS VL: DIELTQPPSVSVAPGQTARISCSGDKLGKKYVHWYQQKPGQAPVLVIYGDDKRPSGIPERFSGSNSGNTATLTISGTQAEDEADYYCQAWGSISRFVFGGGTKLTVLG", "binds"),
    ("TP-2B8 Fab (Fab, V domains shown, Human Fab from HuCal Gold, expressed in E. coli TG1) VH: QVQLVQSGAEVKKPGASVKVSCKASGYTFTGNSMHWVRQAPGQGLEWMGTIFPYDGTTKYAQKFQGRVTMTRDTSISTAYMELSSLRSEDTAVYYCARGVHSYFDYWGQGTLVTVSS VL: DIELTQPPSVSVAPGQTARISCSGDNLRGYYASWYQQKPGQAPVLVIYEDNNRPSGIPERFSGSNSGNTATLTISGTQAEDEADYYCQSWDSPYVHVFGGGTKLTVLG", "binds"),
]
